Measured values drawn from paper PMC10397247 for this set.

MEASUREMENT_TARGET: T1, O6-bH
T1 chain: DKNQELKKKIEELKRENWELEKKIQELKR
TEST_METHOD_NOTES: two-hybrid library CCNG1;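 further: natural log of median RNA to DNA barcode read ratio; higher means stronger binding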
READOUT_TYPE: interaction score
Numbers only.

Worked examples, 2 binders total:
DEIQELEKKIEELKRKNWELKKKNQELKR [O12-bH]	0.619
DENQELEKEIEELERENWELEKKIQELKR [O14-bH]	1.63

Record interaction score per entry; entries follow.
1. DKNQELKKKIEELKRKNWELKKEIQELER [O13-bH]
2. DKNQELKKENEELEREIWELEKEIQELER [O1-bH]
3. DKNQELKKENEELERKIWELKKKIQELKR [O10-bH]
4. DEIQELEKENEELERKIWELKKENQELER [O15-bH]
5. DKIQELKKEIEELERENWELEKENQELER [O11-bH]
6. DEIQELEKKIEELKRENWELEKENQELER [O3-bH]

[-0.527, -0.62, 0.0839, -0.0351, -0.451, -0.104]

Hey, can you go through the list below and give me interaction score for every item?
1. DKIQELKKKNEELKREIWELEKKNQELKR [O16-bH]
2. DKIQELKKEIEELERKNWELKKKNQELKR [O4-bH]

1: 1.06; 2: 0.0257

# query: interaction score of entry DENQELEKKNEELKRKIWELKKKIQELKR [O2-bH]
0.712
